Source listed as a melting point compilation (Tetko et al.; mined from patent text by program, amines drawn as free bases though some values may be those of a salt).

Hi there, I'd appreciate the recorded melting point for every entry that follows.

Req: Could you tell me which melting point is on file for COc1ccc(CNn2c(=O)ccc3cnc(S(C)(=O)=O)nc32)cc1Cl ?
Resp: 212 to 214 °C

Req: Could you tell me which melting point is on file for O=[N+]([O-])c1ccc(OCc2ccc(Cl)nc2)cc1F ?
Resp: 174 °C

Req: Could you tell me which melting point is on file for O=C(O)CNC(=O)[C@@H](CO)NC(=O)CNC(=O)CSC(=O)c1ccccc1 ?
Resp: 149 °C

Req: Could you tell me which melting point is on file for COC(=O)C(Cc1ccc(OC)c(OC)c1)NNc1ccc(C)c(C)c1 (stereo not given) ?
Resp: 148 to 150 °C

Req: Could you tell me which melting point is on file for COc1cccc(CC(=O)O)c1OCCCc1cn(-c2ccc(C(F)(F)F)nn2)nc1C(C)(C)C ?
Resp: 131 to 132 °C

Req: Could you tell me which melting point is on file for COC(=O)c1cc(SCc2ccsc2)c(Oc2ccccc2)c(S(N)(=O)=O)c1 ?
Resp: 148 to 149 °C

Req: Could you tell me which melting point is on file for Nc1ccc(N2C(=O)c3ccc(Cl)cc3C2=O)c(Cl)c1 ?
Resp: 198 to 201 °C

Req: Could you tell me which melting point is on file for O=C(O)Cc1ccc(Oc2ccc3c(c2)S(=O)(=O)NC2CCCN32)cc1 (stereo not given) ?
Resp: 166 to 169 °C

Req: Could you tell me which melting point is on file for COC(=O)c1cccc(COc2cc(Cl)cnc2N)c1 ?
Resp: 148 to 150 °C

Req: Could you tell me which melting point is on file for CC(=O)Nc1ccsc1C(=O)c1ccccc1 ?
Resp: 93 to 95 °C

Req: Could you tell me which melting point is on file for CCCc1nc2c(N)nc3ccccc3c2n1CCc1cc(-c2ccc(F)cc2)no1 ?
Resp: 208 to 209 °C

Req: Could you tell me which melting point is on file for CC1(CO)Cc2nnc(-c3ccc(-c4ccccc4)cc3Cl)n2CCS1 (stereo not given) ?
Resp: 166 to 169 °C

Req: Could you tell me which melting point is on file for CCOC(=O)c1cn(C)nc1NCc1ccc(-c2ccccc2C#N)cc1 ?
Resp: 151 to 152 °C

Req: Could you tell me which melting point is on file for CC(C)(C(=O)O)c1cn2nc(NCCCN3CCC(OC(c4ccccc4)c4ccccc4)CC3)ccc2n1 ?
Resp: 205 to 206 °C

Req: Could you tell me which melting point is on file for Clc1ccccc1-c1n[nH]c(-c2ccccc2Cl)n1 ?
Resp: 159 to 160 °C

Req: Could you tell me which melting point is on file for CC(CS)C(=O)N(CC(=O)O)Cc1ccco1 (stereo not given) ?
Resp: 150 to 153 °C

Req: Could you tell me which melting point is on file for CCOCc1nc2c(N)nc3cccnc3c2n1NC(C)C ?
Resp: 150 to 152 °C

Req: Could you tell me which melting point is on file for CCOC(=O)CC(NC(=O)c1cc(N)ccc1OCCOC)c1ccccc1 (racemic) ?
Resp: 105 to 106 °C

Req: Could you tell me which melting point is on file for C#CCc1c(C)nc2c(OCc3c(C)cccc3NC(=S)NC(=O)c3ccccc3)cccn12 ?
Resp: 159 to 160 °C

Req: Could you tell me which melting point is on file for CNN1c2c(cc(Oc3ccc(F)cc3F)c(=O)n2NC)C=NC1SCc1ccccc1 (stereo not given) ?
Resp: 80.5 to 89.9 °C

Req: Could you tell me which melting point is on file for COC(=O)NC1(C)CN(C(=O)Nc2ccc(C(F)(F)F)cc2)N=C1c1ccc(Cl)cc1 (stereo not given) ?
Resp: 179 to 181 °C

Req: Could you tell me which melting point is on file for O=c1[nH]c2cscc2c(=O)n1CCN1CCN(c2ccc(Cl)cc2)CC1 ?
Resp: > 250 °C

Req: Could you tell me which melting point is on file for N#Cc1nn(-c2c(Cl)cc(C(F)(F)F)cc2Cl)c(N)c1-c1ccsc1C(F)(F)F ?
Resp: 162 °C

Req: Could you tell me which melting point is on file for N#Cc1cc(N)ccc1N1CCC(CCO)CC1 ?
Resp: 60 to 63 °C

Req: Could you tell me which melting point is on file for COCCOc1ccc(COC(=O)NS(=O)(=O)NCC2CC2)c(Oc2ncc(C(F)(F)F)cc2Cl)c1 ?
Resp: 150 °C

Req: Could you tell me which melting point is on file for CCN(CC)CCNC(=O)c1nc(Cl)c(NCCN(CC)CC)nc1OC ?
Resp: 112 °C

Req: Could you tell me which melting point is on file for Nc1cc(-n2cc(C(=O)O)c(=O)c3cc(F)c(F)c(Cl)c32)cnc1Cl ?
Resp: 277 to 281 °C

Req: Could you tell me which melting point is on file for CN1CCN(CC(=O)Nc2ccc3c(c2)C(=O)c2cc(NC(=O)CN4CCN(C)CC4)ccc2C3=O)CC1 ?
Resp: 173 °C

Req: Could you tell me which melting point is on file for CO/C=C(/C(=O)OC)c1ccccc1COc1cccc(N2CCCCC2)c1 ?
Resp: 64 to 66 °C

Req: Could you tell me which melting point is on file for CC(=O)c1ccc(S(=O)(=O)N(CCO)CCO)cc1 ?
Resp: 87.5 to 89.5 °C

Req: Could you tell me which melting point is on file for CCCN1CC=C(c2c[nH]c3ccc(OC)cc23)CC1 ?
Resp: 164 °C

Req: Could you tell me which melting point is on file for NS(=O)(=O)c1cc2cc(CCOCc3ccccc3)ccc2s1 ?
Resp: 136 to 138 °C

Req: Could you tell me which melting point is on file for COc1cc2c(cc1CCNC(=O)c1cc(OC)c(OC)c(OC)c1)CCC2 ?
Resp: 144 to 145 °C

Req: Could you tell me which melting point is on file for Brc1c(NC2=NCCN2)ccc2c1ncn2Cc1ccccc1 ?
Resp: 197 to 198 °C

Req: Could you tell me which melting point is on file for COC1(c2cc(F)cc(Sc3ccc4c(c3)O[C@H](C)C(=O)N4C)c2)CCOCC1 ?
Resp: 107 to 109 °C

Req: Could you tell me which melting point is on file for Cc1cccc(-c2ccnc3ccnn23)n1 ?
Resp: 126 to 127 °C

Req: Could you tell me which melting point is on file for COC(=O)C(=O)c1cc2cc(C#N)ccc2o1 ?
Resp: 196 to 199 °C

Req: Could you tell me which melting point is on file for COc1ccc(C(=O)P2(=O)Oc3ccccc3-c3ccccc32)c(OC)c1 (stereo not given) ?
Resp: 112 to 115 °C

Req: Could you tell me which melting point is on file for CCOC(=O)CNC(=O)Nc1ccc(C(=O)/C=C/c2ccc(-c3cccs3)cc2)cc1 ?
Resp: 209 to 212 °C

Req: Could you tell me which melting point is on file for COc1cc(C)c2c(c1)-c1c([nH]c3ccccc13)C2 ?
Resp: 208 °C
